Provenance of the data: ChEMBL document CHEMBL3227967

assay: Lipophilicity, log P of the compound in 0.1 N HCl solution; format: physicochemical; settings: 0.1 N HCl solution; read-out: logP
parameter: logP
Keep the answer to the number alone.

O=C(O)CCNCC(O)c1cc2ccccc2c2ccccc12 (stereo unspecified) | 0.6
CCCCCNCC(O)c1cc(-c2ccccc2)nc(-c2ccccc2)c1 (stereo unspecified) | 3.97

As a next step, examine the compound that follows.
Lookup: Quick one: give measured logP for CCCCN(CCCC)CC(O)c1cnc2c(Cl)cc(Cl)cc2c1 (stereo unspecified)
Found: 2.46

====

Listed here are compounds together with their documented logP.
assay: Lipophilicity, log P of the compound in 0.1 N HCl solution; assay type: physicochemical; settings: 0.1 N HCl solution; read-out: logP
Keep the answer to the number alone.

CCCCN(CCCC)CC(O)c1cc(Cl)cc2c(C)ccnc12 (stereo unspecified) | 2.31
OC(c1cc2ccccc2c2ccccc12)C1CCCCN1 (stereo unspecified) | 2.01
CCCNCC(O)c1cc(-c2ccccc2)nc2ccccc12 (stereo unspecified) | 1.43
CCNCC(O)c1cc(-c2ccccc2)nc(-c2ccccc2)c1 (stereo unspecified) | 2.59
Cc1ccc(Oc2cc(C(O)CC3CCCCN3)c3ccccc3n2)cc1 (stereo unspecified) | 2.69

As a next step, examine the compound that follows.
Lookup: Quick one: give measured logP for CCCCCCCCN(CCCCCCCC)CC(O)c1cc(-c2ccc(Cl)c(Cl)c2)nc2ccc(OC)cc12 (stereo unspecified)
Found: 8.34

====

test: Lipophilicity, log P of the compound in 0.1 N HCl solution; type: physicochemical; conditions: 0.1 N HCl solution; read-out: logP
Quick rule for you: logP at 2 or higher means Satisfied, lower means Not satisfied.

As a guide, the following entries are already answered.
CCCCN(CCCC)CC(O)c1cc(OC)c2cc(Cl)cc(Cl)c2n1 (stereo unspecified) | Satisfied
CCCCN(CCCC)CC(O)c1cc(-c2ccc(Cl)cc2)c2cc(OC)c(Cl)cc2n1 (stereo unspecified) | Satisfied
CCCCN(CCCC)CC(O)c1cc(-c2ccccc2C(F)(F)F)nc(C(F)(F)F)c1 (stereo unspecified) | Satisfied

Lookup: Check the entry CCCCCNCC(O)c1cc(-c2ccccc2)nc2ccccc12 (stereo unspecified) : does logP equal or exceed 2?
Found: Satisfied

Lookup: Check the entry Cc1cc(C)c2ncc(C(O)CC3CCCCN3)cc2c1 (stereo unspecified) : does logP equal or exceed 2?
Found: Not satisfied

Lookup: Check the entry CCCCCCCN(CCCCCCC)CC(O)c1cc2ncccc2c2ccccc12 (stereo unspecified) : does logP equal or exceed 2?
Found: Satisfied

====

experiment: Lipophilicity, log P of the compound in 0.1 N HCl solution; format: physicochemical; conditions: 0.1 N HCl solution; read-out: logP
parameter: logP

CNCC(O)c1cc(-c2ccccc2)nc2ccccc12 (stereo unspecified) | 0.55

Lookup: Quick one: give measured logP for CCCCCCCCCCN(CCCCCCCCCC)CC(O)c1ccc(Cl)c2ccccc12 (stereo unspecified)
Found: 8.13

Lookup: Quick one: give measured logP for CCN(CC)CC(O)c1cc(Cl)cc2c(C)ccnc12 (stereo unspecified)
Found: 5.25

====

experiment: Lipophilicity, log P of the compound in 0.1 N HCl solution; type: physicochemical; settings: 0.1 N HCl solution; read-out: logP
Listed here are compounds together with their documented logP.

CCCCN(CCCC)CC(O)c1cc(OC)c2cc(OC)c(Cl)cc2n1 (configuration not stated) | 1.71
CCCCCCCN(CCCCCCC)CC(O)c1cc2ccncc2c2cc(Br)ccc12 (configuration not stated) | 4.89
CCCCN(CCCC)CC(O)c1ccc2cc(Cl)cc(Cl)c2n1 (configuration not stated) | 2.46

As a next step, examine the compound that follows.
Lookup: Quick one: give measured logP for CCCCNCC(O)c1cc(-c2ccccc2)nc2ccccc12 (configuration not stated)
Found: 1.87

====

assay: Lipophilicity, log P of the compound in 0.1 N HCl solution; format: physicochemical; conditions: 0.1 N HCl solution; read-out: logP
Field: label. Allowed values: true (logP < 2) or false (logP >= 2).

As a guide, the following entries are already answered.
NCC(O)c1cc2ccc(C(F)(F)F)cc2c2cc(C(F)(F)F)ccc12 (stereo not given) | false
CCCCN(CCCC)CC(O)c1cnc2c(Cl)cc(Cl)cc2c1Cl (stereo not given) | false
CCCCNCC(O)c1cc2ccccc2c2ccccc12 (stereo not given) | false

Lookup: Bench note: check whether OC(CC1CCCCN1)c1cc(C(F)(F)F)nc2ccccc12 (stereo not given) shows logP below 2
Found: true

Lookup: Bench note: check whether CC(C)(C)CC(C)(C)NCC(O)c1c2ccccc2cc2ccccc12 (stereo not given) shows logP below 2
Found: false

Lookup: Bench note: check whether OC(CC1CCNCC1)c1cc2ccc(C(F)(F)F)cc2c2cc(C(F)(F)F)ccc12 (stereo not given) shows logP below 2
Found: false

Lookup: Bench note: check whether CCNCC(O)c1cc(-c2ccccc2)nc2ccccc12 (stereo not given) shows logP below 2
Found: true

Lookup: Bench note: check whether OC(CN1CCCCCC1)c1ccc2c(Cl)cc(-c3ccccc3)nc2c1 (stereo not given) shows logP below 2
Found: false

Lookup: Bench note: check whether CCN(CC)CC(O)c1ccc(Cl)c2ccccc12 (stereo not given) shows logP below 2
Found: true

Lookup: Bench note: check whether Cc1cc(-c2ccccc2)nc2c(C)cc(C(O)CN3CCCCCC3)cc12 (stereo not given) shows logP below 2
Found: false

Lookup: Bench note: check whether CCCCN(CCCC)CC(O)c1c(Br)c(-c2ccccc2)nc2ccccc12 (stereo not given) shows logP below 2
Found: false

====

test: Lipophilicity, log P of the compound in 0.1 N HCl solution; assay type: physicochemical; details: 0.1 N HCl solution; read-out: logP
Listed here are compounds together with their documented logP.
Keep the answer to the number alone.

CCCCN(CCCC)CC(O)c1cnc2c(C(F)(F)F)cccc2c1Cl (stereo not drawn) | 2.63
CCCCCCCN(CCCCCCC)CC(O)c1cc2ccc(Cl)cc2c2cccnc12 (stereo not drawn) | 4.74
CCCNCC(O)c1cc(-c2ccccc2)nc(-c2ccccc2)c1 (stereo not drawn) | 3.03
CCCCCCCN(CCCCCCC)CC(O)c1cc(-c2ccc(Br)cc2)nc(-c2ccc(Br)cc2)c1 (stereo not drawn) | 8.83
CCCN(CCC)CC(O)c1cc2ccccc2c2ccccc12 (stereo not drawn) | 2.12
CC(C)(C)c1cc(C(O)CC2CCCCN2)c2cc(Cl)ccc2n1 (stereo not drawn) | 2.74
N#CCCN(CCC#N)CC(O)c1cc2ccccc2c2ccccc12 (stereo not drawn) | 0.37
CCCCCNCC(O)c1cc2ccccc2c2ccccc12 (stereo not drawn) | 2.8

Lookup: Quick one: give measured logP for CCCCN(CCCC)CC(O)c1cc(-c2ccccc2)nc(-c2ccccc2)c1 (stereo not drawn)
Found: 4.17

Lookup: Quick one: give measured logP for CCCCCCN(CCCCCC)CC(O)c1cc(Cl)c2nc(-c3ccccc3)ccc2c1 (stereo not drawn)
Found: 5.65

Lookup: Quick one: give measured logP for C=CCN(CC=C)CC(O)c1cc2ccccc2c2ccccc12 (stereo not drawn)
Found: 0.59

====

assay: Lipophilicity, log P of the compound in 0.1 N HCl solution; type: physicochemical; conditions: 0.1 N HCl solution; read-out: logP
parameter: logP
Keep the answer to the number alone.

CCCCCCN(CCCCCC)CC(O)c1cc(OC)c2cc(Cl)cc(Cl)c2n1 (stereo not drawn) | 4.38

Lookup: Quick one: give measured logP for CCN(CC)CC(O)c1cc2ccccc2c2ccccc12 (stereo not drawn)
Found: 1.37

Lookup: Quick one: give measured logP for CCCCN(CCCC)CC(O)c1cnc2c(-c3ccccc3)cccc2c1Cl (stereo not drawn)
Found: 3.71

Lookup: Quick one: give measured logP for CCCCN(CCCC)CC(O)c1c(OC)c2ccccc2c2ccccc12 (stereo not drawn)
Found: 2.55

Lookup: Quick one: give measured logP for CCCCNCC(O)c1cc(/C=C/c2ccc(C(F)(F)F)cc2)nc(/C=C/c2ccc(C(F)(F)F)cc2)c1 (stereo not drawn)
Found: 6.67

Lookup: Quick one: give measured logP for O=C(O)c1ccc2cc(C(O)CC3CCCCN3)c3ccc(C(F)(F)F)cc3c2c1 (stereo not drawn)
Found: 2.14

Lookup: Quick one: give measured logP for OC(c1cc(-c2ccccc2)nc(-c2ccccc2)c1)C1CCCCN1 (stereo not drawn)
Found: 3.18

Lookup: Quick one: give measured logP for OCCN(CC(O)c1cc2ccccc2c2ccccc12)C1CCCCC1 (stereo not drawn)
Found: 2

====

assay: Lipophilicity, log P of the compound in 0.1 N HCl solution; assay type: physicochemical; details: 0.1 N HCl solution; read-out: logP
Listed here are compounds together with their documented logP.
Keep the answer to the number alone.

CCCCN(CCCC)CC(O)c1cnc2c(C)cc(C)cc2c1Cl (stereo not drawn) | 2.87
CCN(CC)CC(O)c1ccc(Cl)c2c(C)ccnc12 (stereo not drawn) | 0.68

Lookup: Quick one: give measured logP for OC(CN1C=CN(c2ccccc2)C=C1)c1cc(-c2ccc(F)cc2)nc2cc(F)ccc12 (stereo not drawn)
Found: 4.26

Lookup: Quick one: give measured logP for OC(CC1CC2CCC(CC2)C1)c1cc2ccccc2c2cc(Br)ccc12 (stereo not drawn)
Found: 3.74

Lookup: Quick one: give measured logP for Cc1cc(C(O)CN2CCCCCC2)c2nc(-c3ccccc3)ccc2c1 (stereo not drawn)
Found: 3.47

Lookup: Quick one: give measured logP for CCCCN(CCCC)CC(O)c1cc(-c2ccc(Cl)cc2)c2cc(Cl)cc(Cl)c2n1 (stereo not drawn)
Found: 5.13

Lookup: Quick one: give measured logP for CCCCN(CCCC)CC(O)c1cnc2cc(Cl)ccc2c1Cl (stereo not drawn)
Found: 2.46

Lookup: Quick one: give measured logP for CC(=O)N1CCCCC1CC(O)c1cc(C23CC4CC(CC(C4)C2)C3)nc2c(Cl)cc(Cl)cc12 (stereo not drawn)
Found: 4.29
